Reported values of protein stability index for individual entries
B1: INTS4 (parent)
chain: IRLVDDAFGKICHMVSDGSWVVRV

variants of: B1; assay: protein stability index of a GFP-peptide fusion (GPS, HEK-293T) (PSI 1-6); higher = more stable; conditions: c terminus: a fixed tail appended;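 note: lentivirally expressed fusions sorted by FACS into six bins by GFP to DsRed ratio, PSI derived from sequencing read proportions per bin multiplied by bin number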
Field format: numeric only.

# annotated cases, reported protein stability index shown
# sequence-record, protein stability index
rows = [
    ("IRLVDDAFGKIWHMVSDGSWVVRV [C12W]", 3),
    ("IRLVDDAFGKICHMVSDGSWCVRV [V21C]", 3.07),
    ("IRLVDDAFGKICIMVSDGSWVVRV [H13I]", 3.17),
    ("IRLVDDAFGKICHMVSDGCWVVRV [S19C]", 1.73),
    ("ISLVDDAFGKICHMVSDGSWVVRV [R2S]", 2.96),
    ("IRLVDDAFGKICHMVCDGSWVVRV [S16C]", 2.56),
    ("IRLVDDAFGKICHMVSDGFWVVRV [S19F]", 2.73),
    ("IRLVDRAFGKICHMVSDGSWVVRV [D6R]", 2.21),
]

// query Which protein stability index is listed for IRLVDDAFGKICHMVSDGSWVVRH [V24H] ?
// result 2.79

// query Which protein stability index is listed for IRLVKDAFGKICHMVSDGSWVVRV [D5K] ?
// result 3.01

// query Which protein stability index is listed for IRLVDDAFGKICHMVSDGSEVVRV [W20E] ?
// result 1.64

// data source = the supplement of paper PMC10567573
